target: UDP-galactopyranose mutase (Mycobacterium tuberculosis); experiment: Inhibition of His6-tagged Mycobacterium tuberculosis reduced UDP-galactopyranose mutase expressed in Escherichia coli BL21 assessed as reduction in UDPGalf production using UDPGalp as substrate by HPLC analysis
OBSERVED PROPERTY: IC50 (µM)

INSERT INTO measurements (compound, system_name, observed_property, readout_units, endpoint_result) VALUES
  ('Cc1nn(-c2ccc(Cl)cc2)c(O)c1C(=O)c1ccccc1', 'UDP-galactopyranose mutase (Mycobacterium tuberculosis)', 'IC50', 'µM', 610),
  ('Cc1[nH]n(-c2ccc(Cl)cc2)c(=O)c1C(=O)c1ccc(Cl)cc1', 'UDP-galactopyranose mutase (Mycobacterium tuberculosis)', 'IC50', 'µM', 880),
  ('O=C(CCc1cn(-c2ccc(Cl)cc2)nn1)Oc1ccc(Cl)cc1', 'UDP-galactopyranose mutase (Mycobacterium tuberculosis)', 'IC50', 'µM', 530),
  ('Cc1nn(-c2ccc(Cl)cc2)c(O)c1S(=O)(=O)c1ccc(Cl)cc1', 'UDP-galactopyranose mutase (Mycobacterium tuberculosis)', 'IC50', 'µM', 225),
  ('OC(c1ccc(Cl)cc1)c1cn(-c2ccc(Cl)cc2)nn1 (stereo unspecified)', 'UDP-galactopyranose mutase (Mycobacterium tuberculosis)', 'IC50', 'µM', 150),
  ('Cc1cc(OC(=O)c2ccc(S(N)(=O)=O)cc2)n(-c2ccc(Cl)cc2)n1', 'UDP-galactopyranose mutase (Mycobacterium tuberculosis)', 'IC50', 'µM', 500);

###

Property: pIC50; scope: individual compounds
molecular target: UDP-galactopyranose mutase (Mycobacterium tuberculosis); assay: Inhibition of His6-tagged Mycobacterium tuberculosis reduced UDP-galactopyranose mutase expressed in Escherichia coli BL21 assessed as reduction in UDPGalf production using UDPGalp as substrate in presence of TritonX100 by HPLC analysis
pIC50: −log10 of the molar value.
OBSERVED PROPERTY: pIC50

INSERT INTO measurements (compound, observed_property, endpoint_result) VALUES
  ('Cc1nn(-c2ccc(Cl)cc2)c(O)c1S(=O)(=O)c1ccc(Cl)cc1', 'pIC50', 2.36),
  ('Cc1cc(OC(=O)c2ccc(S(N)(=O)=O)cc2)n(-c2ccc(Cl)cc2)n1', 'pIC50', 2.95),
  ('Cc1[nH]n(-c2ccc(Cl)cc2)c(=O)c1C(=O)c1ccc(Cl)cc1', 'pIC50', 3.23),
  ('O=C(CCc1cn(-c2ccc(Cl)cc2)nn1)Oc1ccc(Cl)cc1', 'pIC50', 2.90),
  ('OC(c1ccc(Cl)cc1)c1cn(-c2ccc(Cl)cc2)nn1 (stereo unspecified)', 'pIC50', 2.57),
  ('Cc1nn(-c2ccc(Cl)cc2)c(O)c1C(=O)c1ccccc1', 'pIC50', 2.82);

###

target: UDP-galactopyranose mutase (Mycobacterium tuberculosis); experiment: Inhibition of Mycobacterium tuberculosis UDP-galactopyranose mutase expressed in Escherichia coli BL21 using […] as substrate by Dixon plot analysis
OBSERVED PROPERTY: Ki

INSERT INTO measurements (compound_string, system_name, observed_property, endpoint_result) VALUES
  ('Cc1[nH]n(-c2ccc(Cl)cc2)c(=O)c1C(=O)c1ccc(Cl)cc1', 'UDP-galactopyranose mutase (Mycobacterium tuberculosis)', 'Ki', '~135 µM');

###

biological target: UDP-galactopyranose mutase (Mycobacterium tuberculosis, UniProt P9WIQ1); experiment: Inhibition of Mycobacterium tuberculosis UDP-galactopyranose mutase expressed in Escherichia coli BL21 using […] as substrate by cornish-bowden plot analysis
Sequence (P9WIQ1 whole entry): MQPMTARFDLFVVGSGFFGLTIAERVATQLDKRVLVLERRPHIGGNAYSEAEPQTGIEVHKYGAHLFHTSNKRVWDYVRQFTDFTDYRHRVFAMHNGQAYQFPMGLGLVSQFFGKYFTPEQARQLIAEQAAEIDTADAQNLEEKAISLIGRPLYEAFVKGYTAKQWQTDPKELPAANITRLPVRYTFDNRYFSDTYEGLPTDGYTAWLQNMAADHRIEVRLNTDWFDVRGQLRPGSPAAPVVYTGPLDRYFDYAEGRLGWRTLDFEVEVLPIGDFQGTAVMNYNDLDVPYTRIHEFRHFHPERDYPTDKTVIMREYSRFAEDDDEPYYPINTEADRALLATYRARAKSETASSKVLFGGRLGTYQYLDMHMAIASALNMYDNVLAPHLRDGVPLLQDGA
OBSERVED PROPERTY: Ki

INSERT INTO assay_data (compound_string, endpoint_result) VALUES
  ('Cc1[nH]n(-c2ccc(Cl)cc2)c(=O)c1C(=O)c1ccc(Cl)cc1', '~400 µM');
